Entries and their protein stability index
assay: protein stability index of a GFP-peptide fusion (GPS, HEK-293T) (PSI 1-6); higher = more stable; conditions: treatment: MLN4924 1 uM, 8 h; c terminus: a fixed tail appended;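 note: 24-mer peptide tiles fused after GFP, lentivirally expressed, FACS-sorted into six equal bins by GFP/DsRed ratio, decoded by Illumina sequencing, PSI is the read-weighted mean bin number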
Could you keep your reply to the number by itself?

Known protein stability index results, listed for orientation:
Query: # protein stability index lookup, item SLSLRLPHQPVTAITRVSDRFSGE [SMTNL2]
Reply: 4.16

Query: Could you do the same for EAQEEFLRVLGSMCQRLRSMQYNG [DFFB] , please?
Reply: 2.27

Query: Could you do the same for FGIGSEILKNLSQVAMRCRCSSMH [SAT1] , please?
Reply: 2.45

Query: Could you do the same for PQYEFKEAAGSFTSSLAQPGAYYP [IRX6] , please?
Reply: 3.36

Query: Could you do the same for VSGSHFVGVDGVRAFLQTYSHEVS [PCDHGA10] , please?
Reply: 2.24

More entries:
Query: # protein stability index lookup, item GNDSFQLQVTEDVNSSIKTFFCPN [CLCN6]
Reply: 3.6

Query: Could you do the same for TAEKRKRLGELFNPYYDPLQWKSS [CHGB] , please?
Reply: 2.93

Query: Could you do the same for TPTLKVFMHENLYFTNRKVNSVCW [DCAF4] , please?
Reply: 1.95

Query: Could you do the same for ELLGVHPGASTEEVKRAFFSKSKE [DNAJC4] , please?
Reply: 4.08

Query: Could you do the same for TLAVTCQLPIDRGGGEGKAMYIDT [RAD51] , please?
Reply: 3.33

Query: Could you do the same for RTVGFEEQASAFQEQEIDGKSLLL [SAMD13] , please?
Reply: 4.85

Query: Could you do the same for PDDPEHLAARRQWRDECLMRLAKL [CRYL1] , please?
Reply: 3.83

Query: Could you do the same for IMTDLYYLSQTDGAGDWREKEAKD [FUT8] , please?
Reply: 3.69

----------
assay: protein stability index of a GFP-peptide fusion (GPS, HEK-293T) (PSI 1-6); higher = more stable; conditions: treatment: DMSO; c terminus: a fixed tail appended
assayEndpoint: protein stability index
Could you keep your reply to the number by itself?

Known protein stability index results, listed for orientation:
Query: # protein stability index lookup, item ISEHEHFTDFNATSALFWEQHDLV [CLPTM1]
Reply: 3.33

Query: Could you do the same for TKADIGTPSNFQHIGHVGWDPNTG [WASL] , please?
Reply: 3.81

Query: Could you do the same for CREQLDIMNDLSNRVWSISQEPDP [TRIM14] , please?
Reply: 3.43

Query: Could you do the same for EILEQQQQERNDTNFHGVCMFCNE [ZNF277] , please?
Reply: 3.73

Query: Could you do the same for HAYIHSVQFSHHVFLNLHTLKFYC [USP39] , please?
Reply: 3.33

Query: Could you do the same for WKALSEFALQSDLDQPAFQQLVSF [ISL2] , please?
Reply: 2.21

Could you now consider this next sequence?
Query: # protein stability index lookup, item KFSLLNAKREETKAMESQRAYRFV [SPOPL]
Reply: 3.06

----------
assay: protein stability index of a GFP-peptide fusion (GPS, HEK-293T) (PSI 1-6); higher = more stable; settings: treatment: DMSO; c terminus: a fixed tail appended
Parameter threshold = 4. Response is Criterion met when protein stability index meets or exceeds it, else Criterion not met.

Study these solved cases before continuing.
Query: Check if protein stability index >= 4 (inclusive). Item: EPSWECKFDHIEVRDGPFGFSPII [NETO1]
Reply: Criterion not met

Query: Could you do the same for VSDITDLELLDKIERSKIVSTMRC [PPEF2] , please?
Reply: Criterion not met

Query: Could you do the same for GMSYLYASWMYQLQHGDQLSICFT [TEX19] , please?
Reply: Criterion not met

Query: Could you do the same for GSIPEFFHIMKRKFTNKEWETIRS [AASDHPPT] , please?
Reply: Criterion not met

Query: Could you do the same for APGSASSSKVSGVLKKLAQSRRTA [YJU2B] , please?
Reply: Criterion not met

More entries:
Query: Check if protein stability index >= 4 (inclusive). Item: RIFDIKDGKLLWEQELYNNFVYNS [WASL]
Reply: Criterion not met

Query: Could you do the same for NQIMPKTGFLIIILAIIAKEGDCA [MAGEA6] , please?
Reply: Criterion not met

Query: Could you do the same for GRSGPGCAVLDDSIYLVGGYSWSM [KLHL14] , please?
Reply: Criterion not met

Query: Could you do the same for GGGEGHQPAGNRRGQARRLAPNFR [BEX3] , please?
Reply: Criterion met

Query: Could you do the same for RKISSLSFTLEEEEEGGEEEEEAA [FAM50A] , please?
Reply: Criterion met

Query: Could you do the same for QDSFEAAGNSTSGSRAGASSFSDP [KCNA3] , please?
Reply: Criterion met

Query: Could you do the same for RSLQDLARIAIRGTIKKIIHQETV [PCMTD2] , please?
Reply: Criterion not met

Query: Could you do the same for RVMKVEDREGPSSSKLVTKKAPQP [HDAC6] , please?
Reply: Criterion met

Where these numbers come from: the supplement of paper PMC10567573
